Tested on: LOC_OS03G27990-cb004;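 also: purified Escherichia coli-expressed rice kinase domain construct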
EXPERIMENT_NOTES: thermal shift delta Tm vs DMSO control; higher = stronger stabilization (binding)
CONDITION_CONTEXT: 12.5 µM; protein concentration 2 µM
MEASUREMENT_LABEL: thermal shift delta Tm (°C)

C=CC(=O)N[C@H]1CCOC[C@H]1Nc1ncc2cc(-c3c(Cl)c(OC)cc(OC)c3Cl)ccc2n1 :: -0.08
Nc1ccc(-c2ccc3ncc4ccc(=O)n(-c5cccc(C(F)(F)F)c5)c4c3c2)cn1 :: 0.43
N#Cc1ccc2[nH]c(O)c(-c3ccc(CN4CCOCC4)cn3)c2c1 :: 0.48
NC(=O)c1ccc(N(C(N)=O)c2c(F)cccc2F)nc1-c1ccc(F)cc1F :: 0.18
NC1(Cc2ccc(Cl)cc2)CCN(c2ncnc3[nH]ccc23)CC1 :: 0.26
CO[C@H]1CC[C@H](N2C(=O)CNc3ncc(-c4ccc(C(C)(C)O)nc4)nc32)CC1 :: -0.29
O=C(O[C@@H]1Cc2c(O)cc(O)cc2O[C@@H]1c1cc(O)c(O)c(O)c1)c1cc(O)c(O)c(O)c1 [(-)-Epigallocatechin Gallate] :: 0.05
O=C(NOCC(O)CO)c1cc(Br)c(F)c(F)c1Nc1ccc(I)cc1F (stereo unspecified) :: 0.15
CCc1cnn2c(NCc3ccc[n+]([O-])c3)cc(N3CCCC[C@H]3CCO)nc12 :: 0.33
Cn1nccc1Nc1nccc(-c2ccn([C@H](CO)c3ccc(Cl)c(F)c3)c(=O)c2)n1 :: 0.03
NC[C@@](O)(c1ccc(Cl)cc1)c1ccc(-c2cn[nH]c2)cc1 :: 0.56
Cc1cc(Nc2ncnc3ccc(-c4ccc(CNCCS(C)(=O)=O)o4)cc23)ccc1Oc1ccn2ncnc2c1 :: 0.37
C=CC(=O)Nc1cccc(Nc2nc(Nc3ccc(Oc4ccnc(C(=O)NC)c4)cc3)ncc2F)c1 :: 0.98
O=c1cc(N2CCOCC2)oc2c(-c3cccc4c3sc3ccccc34)cccc12 :: 0.6
Cc1ccc([N+](=O)[O-])cc1S(=O)(=O)N(C)/N=C/c1cnc2ccc(Br)cn12 :: 0.5
COc1cc(Nc2ncc3c(n2)-c2ccc(Cl)cc2C(c2c(F)cccc2OC)=NC3)ccc1C(=O)O :: -0.26
CCN(CC)CCNC(=O)c1c(C)[nH]c(/C=C2\C(=O)Nc3ccc(F)cc32)c1C [Sunitinib Malate] :: 6.23
Cn1sc(=O)n(Cc2ccccc2)c1=O :: -9.72
CCn1nc(C2CCN(C(=O)CCO)CC2)nc1-c1cnc(N)c(-c2nnc(C(C)(C)C)o2)n1 :: 0.52
C=CC(=O)Nc1cccc(Sc2nc(Nc3ccc(N4CCN(C)CC4)cc3)ncc2Cl)c1 :: 2.86
COc1cc(Nc2ncc(F)c(Nc3ccc4c(n3)NC(=O)C(C)(C)O4)n2)cc(OC)c1OC :: 2.62
COc1cc(Nc2ncc(F)c(Nc3ccc4c(n3)NC(=O)C(C)(C)O4)n2)cc(OC)c1OC [R406 (free base)] :: 1.81
COc1ccc(/C=C/C(=O)C2(C(=O)/C=C/c3ccc(OC)c(OC)c3)CCCCC2)cc1OC :: 0.61
CC(C)(O)CNc1ncc(-c2ccnc(Nc3ccncc3)n2)c(CC2CC2)n1 :: 0.32
CN(C)C/C=C/C(=O)Nc1cc2c(Nc3ccc(F)c(Cl)c3)ncnc2cc1O[C@H]1CCOC1 [Afatinib (BIBW2992) Dimaleate] :: 1.68
C=CC(=O)Nc1cccc(C)c1Nc1ncc2cc(-c3c(Cl)c(OC)cc(OC)c3Cl)ccc2n1 :: 0.28
C[C@H]1[C@H](C)CC[C@]2(C(=O)O)CC[C@]3(C)C(=CC[C@@H]4[C@@]5(C)C[C@@H](O)[C@H](O)[C@@](C)(CO)[C@@H]5CC[C@]43C)[C@H]12 :: 0.08
Fc1ccc2[nH]ccc2c1-c1nc(N2CCOCC2)c2sc(CN3CCN(CC4CC4)CC3)cc2n1 :: 0
O=C(Nc1c[nH]nc1-c1nc2ccc(CN3CCOCC3)cc2[nH]1)NC1CC1 :: 6.08
C[C@@H](N)[C@H]1CC[C@H](C(=O)Nc2ccncc2)CC1 :: 0.09
Cc1cc(CN2CCN(c3c(Br)cnc4nc(-c5ccc(N6CCN(C)CC6)cc5)[nH]c34)CC2)no1 :: 1.47
